- Target of assay: reverse transcriptase (Human immunodeficiency virus type 1 group M subtype B, UniProt P04585)
Listing of recorded IC50 by entry.
Please respond with the number in nM and leave the unit unwritten.

Completed entries (count: 3):
Structure smiles: O=C1CN(C(=O)c2cc(-c3cc(F)cc(OC(F)(F)F)c3)n(-c3cccnc3)n2)CCN1
IC50 (nM): 56
--
Structure smiles: O=C1CN(C(=O)c2cc(-c3cc(Br)cc(OC(F)(F)F)c3)n(-c3ccnc(Cl)c3)n2)CCN1
IC50 (nM): 758
--
Structure smiles: O=C1CN(C(=O)c2cc(-c3cc(Br)cc(OC(F)(F)F)c3)n(-c3cccnc3)n2)CN1
IC50 (nM): 213

Here is another compound to look at.
What measured IC50 goes with `O=C(c1cc(-c2cc(Cl)cc(OC(F)F)c2)n(-c2cccnc2)n1)N1CCS(=O)(=O)C1` ?
65

###

- Test system: HIV-1LAI Wild Type
- Measurement protocol: AlamarBlue viability assay, HIV-1LAI-infected MT4 cells
- Type: cell-based
- Condition summary: Human immunodeficiency virus 1, MT4, MT4 cells, 10% FCS
Experimental readout: log10(EC50) (log10 of the value in µM)
Note the log scale: values are log10 of EC50 expressed in µM.

Completed entries (count: 10):
Molecule: O=C(c1cc(-c2cc(F)cc(OCC(F)(F)F)c2)n(-c2cccnc2)n1)N1CCS(=O)(=O)C1
Target of assay: HIV-1LAI Wild Type
log10(EC50): -1.18
--
Molecule: Cc1cc(-n2nc(C(=O)N3CNC(=O)C3)cc2-c2cc(F)cc(Cl)c2)ccn1
Target of assay: HIV-1LAI Wild Type
log10(EC50): -0.40
--
Molecule: O=C1CN(C(=O)c2cc(-c3cc(F)cc(OC(F)F)c3)n(-c3cccnc3)n2)CCN1
Target of assay: HIV-1LAI Wild Type
log10(EC50): -0.19
--
Molecule: O=C1CN(C(=O)c2cc(-c3cc(F)cc(Cl)c3)n(-c3ccnc(Cl)c3)n2)CCN1
Target of assay: HIV-1LAI Wild Type
log10(EC50): -0.82
--
Molecule: O=C1CN(C(=O)c2cc(-c3cc(F)cc(OC(F)(F)F)c3)n(-c3ccnc(Cl)c3)n2)CCN1
Target of assay: HIV-1LAI Wild Type
log10(EC50): 0.32
--
Molecule: O=C(c1cc(-c2cc(Cl)cc(OC(F)(F)F)c2)n(-c2ccc[n+](O)c2)n1)N1CCS(=O)(=O)C1
Target of assay: HIV-1LAI Wild Type
log10(EC50): 0.45
--
Molecule: O=C1CN(C(=O)c2cc(-c3cc(F)cc(Cl)c3)n(-c3cccnc3)n2)CN1
Target of assay: HIV-1LAI Wild Type
log10(EC50): -1.55
--
Molecule: O=C(c1cc(-c2cc(F)cc(OC(F)(F)F)c2)n(-c2ccnc(Cl)c2)n1)N1CCS(=O)(=O)C1
Target of assay: HIV-1LAI Wild Type
log10(EC50): -0.31
--
Molecule: COc1cc(-n2nc(C(=O)N3CNC(=O)C3)cc2-c2cc(Br)cc(OC(F)(F)F)c2)ccn1
Target of assay: HIV-1LAI Wild Type
log10(EC50): -0.98
--
Molecule: N#Cc1cc(OC(F)(F)F)cc(-c2cc(C(=O)N3CCNC(=O)C3)nn2-c2cccnc2)c1
Target of assay: HIV-1LAI Wild Type
log10(EC50): -0.89

Here is another molecule to look at.
Provide the documented log10(EC50) with HIV-1LAI Wild Type as the system for O=C(c1cc(-c2cc(F)cc(OC(F)(F)F)c2)n(-c2ccnc(Cl)c2)n1)N1CC[S+]([O-])C1 (stereo not shown)
0.19

###

- Test system: HIV-1NL4-3 Wild Type
- Measurement protocol: Luminescence reduction assay, MT4 cells infected with HIV-1NL4-3 luciferase reporter virus, wild type
- Type: cell-based
- Condition summary: Human immunodeficiency virus 1, MT4, MT4 cells, 2% FCS
Experimental readout: EC50 (µM)
Please respond with the number in µM and leave the unit unwritten.

What measured EC50 goes with `O=C1CN(C(=O)c2cc(-c3cncc(C(F)(F)F)c3)n(-c3cccc(Cl)c3)n2)CN1` ?
0.052

###

Listing of recorded log10 EC50 by entry.
- Tested on: HIV-1LAI Wild Type
- Measurement protocol: AlamarBlue viability assay, HIV-1LAI-infected MT4 cells
- Type: cell-based
- Condition summary: Human immunodeficiency virus 1, MT4, MT4 cells, 10% FCS
- Procedure: For the batch of a 96-well MTP, 3 million PBLs are pelletized, suspended in 1 ml of RPMI 1640 medium/10% FCS/2 mmol of L-glutamine/1% Pen/Strep, and incubated together with a suitable amount of HIV-1LA1 (NIH AIDS Research & Reference Reagent Program, Germantown, USA) for 2 hours at 37° C. (pellet infection). […]
Note the log scale: values are log10 of EC50 expressed in µM.

Completed entries (count: 5):
Compound: COc1cc(Br)cc(-c2cc(C(=O)N3CCNC(=O)C3)nn2-c2cccnc2)c1
Target of assay: HIV-1LAI Wild Type
Experimental readout: log10 EC50
Measured value: -1.48
--
Compound: O=C(c1cc(-c2cc(Br)cc(OC(F)(F)F)c2)n(-c2ccnc(C(F)(F)F)c2)n1)N1CC[S+]([O-])C1 (stereo not shown)
Target of assay: HIV-1LAI Wild Type
Experimental readout: log10 EC50
Measured value: 0.29
--
Compound: O=C1CN(C(=O)c2cc(-c3cc(Br)cc(OC(F)(F)F)c3)n(-c3ccnc(Cl)c3)n2)CN1
Target of assay: HIV-1LAI Wild Type
Experimental readout: log10 EC50
Measured value: -0.95
--
Compound: O=C1CN(C(=O)c2cc(-c3cncc(Cl)c3)n(-c3ccc(F)c(Cl)c3)n2)CN1
Target of assay: HIV-1LAI Wild Type
Experimental readout: log10 EC50
Measured value: -2.00
--
Compound: O=C(c1cc(-c2cc(Br)cc(OC(F)(F)F)c2)n(-c2cccnc2)n1)N1CCSC1
Target of assay: HIV-1LAI Wild Type
Experimental readout: log10 EC50
Measured value: -0.10

What measured log10 EC50 goes with `O=C1CN(C(=O)c2cc(-c3cc(Br)cc(OC(F)(F)F)c3)n(-c3cncc(F)c3)n2)CN1` ?
-0.56

What measured log10 EC50 goes with `O=C1CN(C(=O)c2cc(-c3cc(Br)cc(OC(F)(F)F)c3)n(-c3cncc(Cl)c3)n2)CCN1` ?
-0.12

What measured log10 EC50 goes with `O=C1CN(C(=O)c2cc(-c3cc(Br)cc(OC(F)(F)F)c3)n(-c3ccc(Cl)nc3)n2)CN1` ?
-1.01

What measured log10 EC50 goes with O=C(c1cc(-c2cc(F)cc(OCC(F)(F)F)c2)n(-c2cccnc2)n1)N1CC[S+]([O-])C1 (racemic) ?
-0.61

What measured log10 EC50 goes with `COc1cc(OC(F)(F)F)cc(-c2cc(C(=O)N3CNC(=O)C3)nn2-c2cccnc2)c1` ?
-1.32

What measured log10 EC50 goes with `O=C1CN(C(=O)c2cc(-c3cncc(C(F)(F)F)c3)n(-c3ccc(F)c(Cl)c3)n2)CCN1` ?
-0.58

###

- Test system: HIV-1NL4-3 Wild Type
- Measurement protocol: Luminescence reduction assay, MT4 cells infected with HIV-1NL4-3 luciferase reporter virus, wild type
- Type: cell-based
- Condition summary: Human immunodeficiency virus 1, MT4, MT4 cells, 2% FCS
Listing of recorded log10 EC50 by entry.
Note the log scale: values are log10 of EC50 expressed in µM.

Completed entries (count: 5):
Molecule: O=C1CN(C(=O)c2cc(-c3cncc(C(F)(F)F)c3)n(-c3cccc(Cl)c3)n2)CCN1 [Example 109]
log10 EC50: -0.63

Molecule: N#Cc1cc(OC(F)(F)F)cc(-c2cc(C(=O)N3CCNC(=O)C3)nn2-c2cccnc2)c1 [Example 89]
log10 EC50: -0.59

Molecule: O=C(c1cc(-c2cc(F)cc(Cl)c2)n(-c2ccnc(C(F)(F)F)c2)n1)N1CCS(=O)(=O)C1 [Example 20]
log10 EC50: -0.79

Molecule: O=C1CN(C(=O)c2cc(-c3cc(Br)cc(OC(F)(F)F)c3)n(-c3ccnc(Cl)c3)n2)CCN1 [Example 49]
log10 EC50: -2.10

Molecule: O=C1CN(C(=O)c2cc(-c3cc(Br)cc(OC(F)(F)F)c3)n(-c3ccc(Cl)nc3)n2)CCN1 [Example 35]
log10 EC50: -1.38

Provide the documented log10 EC50 with HIV-1NL4-3 Wild Type as the system for O=C1CN(C(=O)c2cc(-c3cc(F)cc(Cl)c3)n(-c3ccnc(Cl)c3)n2)CCN1 [Example 15]
-1.74

Provide the documented log10 EC50 with HIV-1NL4-3 Wild Type as the system for COc1cc(Br)cc(-c2cc(C(=O)N3CCNC(=O)C3)nn2-c2ccnc(Cl)c2)c1 [Example 97]
-1.89

Provide the documented log10 EC50 with HIV-1NL4-3 Wild Type as the system for O=C1CN(C(=O)c2cc(-c3ccnc(Cl)c3)n(-c3cccc(Cl)c3)n2)CN1 [Example 114]
-2.15
